system: UACC-257; assay: NCI tumour cell line growth inhibition, 48 h
Active and inactive are the calls of the source. Cut-off read from the data, not from the text of the source: active = GI50 up to about 1.1 µM and inactive = higher.
readout: GI50

[[record]]
molecule = "Cc1ccc(C(=O)/C=C/c2cccc([N+](=O)[O-])c2)cc1"
result = "> 100 µM (inactive)"

[[record]]
molecule = "COc1ccc(-c2nnc(CCCCCCCCc3nnc(-c4ccc(OC)cc4)o3)o2)cc1"
result = "> 100 µM (inactive)"

[[record]]
molecule = "CN(C)CCC(/C=C/c1ccccc1)=N\\Nc1ccc(Cl)cc1"
result = "4.18 µM (inactive)"

[[record]]
molecule = "Cc1cccc(CC(Cc2ccc(C)cc2C(=O)O)C(=O)O)c1 (stereo not drawn)"
result = "> 100 µM (inactive)"

[[record]]
molecule = "O=C1C(Cl)C2(CC(/C=C/c3ccccc3)=NN2c2cccc(S(=O)(=O)O)c2)N1c1nc2ccccc2s1 (stereo not drawn)"
result = "17.8 µM (inactive)"

[[record]]
molecule = "COc1ccc(C2C3=C(COC3=O)OC(C)(C)Oc3cc4c(cc32)OCO4)cc1 (stereo not drawn)"
result = "38.3 µM (inactive)"

[[record]]
molecule = "CN(C)CCN1C(=O)N(CCN(C)C)c2c3cc(O)ccc3nc3c([N+](=O)[O-])ccc1c23"
result = "15.3 µM (inactive)"

[[record]]
molecule = "COC(=O)C(=O)C(C#N)c1c(Cl)cccc1Cl (stereo not drawn)"
result = "> 100 µM (inactive)"

